# ASSAY REMARKS: in vivo
# CONDITIONS: BALB/c, mouse, po, 30 mg/kg

[
  {
    "COMPOUND STRUCTURE STRING": "CC[C@]1(C)C[C@@H](OC(=O)CSC(C)(C)CNC(=O)[C@H](N)CC(C)C)[C@]2(C)[C@H](C)CC[C@]3(CC[C@@H](O)[C@H]32)[C@@H](C)[C@@H]1O",
    "Tmax": "≤ 1 h"
  }
]

###

# ASSAY REMARKS: in vitro
# CONDITIONS: monkey

[
  {
    "COMPOUND": "NNC(=O)c1ccncc1 [Isoniazid (INH), Isoniazid, reference compound]",
    "IC50 at 72 h": "> 200 µg/mL"
  },
  {
    "COMPOUND": "C=C[C@]1(C)C[C@@H](OC(=O)CSC(C)(C)CNC(=O)[C@H](N)C(C)C)[C@]2(C)[C@H](C)CC[C@]3(CCC(=O)[C@H]32)[C@@H](C)[C@@H]1O [Valnemulin]",
    "IC50 at 72 h": "15 µg/mL"
  },
  {
    "COMPOUND": "CC(=O)NC[C@H]1CN(c2ccc(N3CCOCC3)c(F)c2)C(=O)O1 [Linezolid]",
    "IC50 at 72 h": "> 200 µg/mL"
  },
  {
    "COMPOUND": "CC[C@@H](CO)NCCN[C@@H](CC)CO [Ethambutol (EMB), Ethambutol]",
    "IC50 at 72 h": "> 200 µg/mL"
  },
  {
    "COMPOUND": "CO[C@H]1/C=C/O[C@@]2(C)Oc3c(C)c(O)c4c(O)c(c(/C=N/N5CCN(C)CC5)c(O)c4c3C2=O)NC(=O)/C(C)=C\\C=C\\[C@H](C)[C@H](O)[C@@H](C)[C@@H](O)[C@@H](C)[C@H](OC(C)=O)[C@@H]1C [Rifampicin (RIF), Rifampicin]",
    "IC50 at 72 h": "> 200 µg/mL"
  }
]

###

# ASSAY REMARKS: in vitro
# CONDITIONS: human, Caco-2

[
  {
    "COMPOUND STRUCTURE STRING": "CNC(=C[N+](=O)[O-])NCCSCc1ccc(CN(C)C)o1",
    "efflux ratio at 2 h, 10 µM": 5
  }
]
